assayed_target: human STING (Homo sapiens)
Sequence (Q86WV6 whole entry H232R): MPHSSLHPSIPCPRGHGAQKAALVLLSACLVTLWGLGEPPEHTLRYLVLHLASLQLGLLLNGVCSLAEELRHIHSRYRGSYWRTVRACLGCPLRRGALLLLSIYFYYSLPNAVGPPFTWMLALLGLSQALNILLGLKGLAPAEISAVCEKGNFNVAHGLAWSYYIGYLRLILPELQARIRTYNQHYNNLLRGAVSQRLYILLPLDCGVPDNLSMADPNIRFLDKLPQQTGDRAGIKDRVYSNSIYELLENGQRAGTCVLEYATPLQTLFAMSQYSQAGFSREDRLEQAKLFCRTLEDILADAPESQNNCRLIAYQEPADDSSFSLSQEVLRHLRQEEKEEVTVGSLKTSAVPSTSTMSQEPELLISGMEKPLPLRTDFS
assay_procedure: Fluorescence Thermal Shift assay (hSTING FTS binding assay)
conditions: STING 0.1 mg/ml, 20 min preincubation, SyproOrange
readout: hSTING FTS binding assay (ΔT C.°)

Below: 5 compounds and their reported hSTING FTS binding assay (ΔT C.°).
{"columns": ["compound", "hSTING FTS binding assay (ΔT C.°)"],
 "data": [
  ["Cc1cc(CN(Cc2cn(C)c3cc(Cl)c(F)cc3c2=O)[C@H]2CCCN(c3cccnc3)C2)ccn1", "++ (ΔTm>10° C.)"],
  ["Cc1cc(CN(Cc2c[nH]c3ccccc3c2=O)[C@H]2CCCN(c3cccnc3)C2)ccn1", "++ (ΔTm>10° C.)"],
  ["Cc1ccc(N2CCC[C@H](N(Cc3ccnc(C)c3)Cc3cn(C)c4cc(Br)ccc4c3=O)C2)cn1", "++ (ΔTm>10° C.)"],
  ["COc1ncc(N2CCC[C@H](N(Cc3ccnc(C)c3)Cc3cn(C)c4ccccc4c3=O)C2)cn1", "+ (ΔTm<10° C.)"],
  ["Cc1ccc(N2CCC[C@H](N(Cc3ccnc(C)c3)Cc3cn(C4CC4)c4cc(N5CCN[C@H](C)C5)c(F)cc4c3=O)C2)cn1", "++ (ΔTm>10° C.)"]
]}

Incoming: hSTING FTS binding assay (ΔT C.°) for COc1cc(CN(Cc2cn(C3CC3)c3cc(N4CCN(C)CC4)c(F)cc3c2=O)[C@H]2CCCN(c3cccnc3)C2)ccn1 ?
Outgoing: ++ (ΔTm>10° C.)

Incoming: hSTING FTS binding assay (ΔT C.°) for Cc1cc(CN(Cc2cn(C)c3ccccc3c2=O)[C@H]2CCCN(c3ccncc3Br)C2)ccn1 ?
Outgoing: + (ΔTm<10° C.)

Incoming: hSTING FTS binding assay (ΔT C.°) for COc1cc2c(cc1F)c(=O)c(CN(Cc1ccnc(C)c1)[C@H]1CCCN(c3ccc(C)nc3)C1)cn2C1CC1 ?
Outgoing: ++ (ΔTm>10° C.)

Incoming: hSTING FTS binding assay (ΔT C.°) for Cc1cc(CN(Cc2cn(C)c3ccccc3c2=O)[C@H]2CCCN(c3cccnc3)C2)cc(C)n1 ?
Outgoing: + (ΔTm<10° C.)

Incoming: hSTING FTS binding assay (ΔT C.°) for Cc1ccc(N2CCC[C@H](N(Cc3ccnc(C)c3)Cc3cn(C4COC4)c4ccccc4c3=O)C2)cn1 ?
Outgoing: ++ (ΔTm>10° C.)

Incoming: hSTING FTS binding assay (ΔT C.°) for Cc1cc(CN(Cc2cn(C)c3ccccc3c2=O)[C@H]2CCCN(c3ccn(C)c(=O)c3)C2)ccn1 ?
Outgoing: + (ΔTm<10° C.)

Incoming: hSTING FTS binding assay (ΔT C.°) for Cc1ccc(N2CCC[C@H](N(Cc3ccnc(C)c3)Cc3cn(C4CC4)c4cc(N5CCNCC5)c(F)cc4c3=O)C2)cn1 ?
Outgoing: ++ (ΔTm>10° C.)

Incoming: hSTING FTS binding assay (ΔT C.°) for Cc1cc(CN(Cc2cn(C)c3ccccc3c2=O)[C@@H]2CN(c3cccnc3)CC[C@H]2O)ccn1 ?
Outgoing: + (ΔTm<10° C.)

Incoming: hSTING FTS binding assay (ΔT C.°) for Cc1cc(CN(Cc2cn(C)c3ccccc3c2=O)[C@H]2CCCN(c3ncc(Br)cn3)C2)ccn1 ?
Outgoing: + (ΔTm<10° C.)

Incoming: hSTING FTS binding assay (ΔT C.°) for CCc1cc(CN(Cc2cn(C)c3ccccc3c2=O)C2CCCN(c3cccnc3)C2)ccn1 (stereo not shown) ?
Outgoing: + (ΔTm<10° C.)

Incoming: hSTING FTS binding assay (ΔT C.°) for COc1cc(CN(Cc2cn(C3CC3)c3cc(Cl)c(F)cc3c2=O)[C@H]2CCCN(c3cccnc3)C2)ccn1 ?
Outgoing: ++ (ΔTm>10° C.)

Incoming: hSTING FTS binding assay (ΔT C.°) for Cc1ccc(N2CCC[C@H](N(Cc3ccnc(C)c3)Cc3cn(C4CC4)c4cc(N5CCN(CC(F)F)CC5)c(F)cc4c3=O)C2)cn1 ?
Outgoing: ++ (ΔTm>10° C.)

Incoming: hSTING FTS binding assay (ΔT C.°) for Cc1ccc(N2CCC[C@H](N(Cc3ccnc(C)c3)Cc3cn(C4CC4)c4cc(Cl)c(F)cc4c3=O)C2)cn1 ?
Outgoing: ++ (ΔTm>10° C.)

Incoming: hSTING FTS binding assay (ΔT C.°) for Cc1cc(CN(Cc2cn(C)c3ccccc3c2=O)[C@H]2CCCN(c3cc(=O)[nH]cn3)C2)ccn1 ?
Outgoing: ++ (ΔTm>10° C.)
